- Tested target: recombinant human Mcl-1 (residues 171-327) / Bim interaction (Homo sapiens (Human), UniProt Q07820)
- Sequence (Q07820 171-327): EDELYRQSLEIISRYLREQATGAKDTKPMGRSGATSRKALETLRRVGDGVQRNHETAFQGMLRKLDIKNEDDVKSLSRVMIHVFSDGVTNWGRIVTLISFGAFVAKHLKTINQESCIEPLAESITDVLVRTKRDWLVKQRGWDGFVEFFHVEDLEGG
- Measurement notes: biochemical
- Type: binding
- Condition label: TR-FRET, Mcl-1(171-327) / biotin-Bim (51-76); read-out: Mcl-1 HTRF IC50
Class membership depends on IC50 alone; the intervals are 0: < 0.4 nM; 1: ≥ 0.4 nM and < 3 nM; 2: ≥ 3 nM

A selection of reference data follows.
Query string: Hi there! Could you help me figure out the category for CO[C@@]1(CS(=O)(=O)C(C)C)/C=C/C[C@H](C)[C@@H](C)S(=O)(=O)NC(=O)c2ccc3c(c2)N(C[C@@H]2CC[C@H]21)C[C@@]1(CCCc2cc(Cl)ccc21)CO3 [Example 100316] please?
Result string: 0

Query string: Hi there! Could you help me figure out the category for COC(=O)[C@]1(O)/C=C/C[C@H](C)[C@@H](C)S(=O)(=O)NC(=O)c2ccc3c(c2)N(C[C@@H]2CC[C@H]21)C[C@@]1(CCCc2cc(Cl)ccc21)CO3 please?
Result string: 1

Query string: Hi there! Could you help me figure out the category for C[C@@H]1[C@@H](C)C/C=C/[C@](O)(c2ccccn2)[C@@H]2CC[C@H]2CN2C[C@@]3(CCCc4cc(Cl)ccc43)COc3ccc(cc32)C(=O)NS1(=O)=O please?
Result string: 2

Query string: Hi there! Could you help me figure out the category for CC[C@]1(OCCN2CCOCC2)/C=C/C[C@H](C)[C@@H](C)S(=O)(=O)NC(=O)c2ccc3c(c2)N(C[C@@H]2CC[C@H]21)C[C@@]1(CCCc2cc(Cl)ccc21)CO3 (single isomer, unassigned) please?
Result string: 0

Query string: Hi there! Could you help me figure out the category for C[C@@H]1[C@@H](C)CCC[C@@](O)(CC(=O)N2CCOC2=O)[C@@H]2CC[C@H]2CN2C[C@@]3(CCCc4cc(Cl)ccc43)COc3ccc(cc32)C(=O)NS1(=O)=O [Example 100153] please?
Result string: 1

Query string: Hi there! Could you help me figure out the category for CO[C@@]1(CCN2CC(C)(N(C)C)C2)/C=C/C[C@H](C)[C@@H](C)S(=O)(=O)NC(=O)c2ccc3c(c2)N(C[C@@H]2CC[C@H]21)C[C@@]1(CCCc2cc(Cl)ccc21)CO3 please?
Result string: 0

Query string: Hi there! Could you help me figure out the category for C[C@@H]1[C@@H](C)C/C=C/[C@](O)(C(F)(F)F)[C@@H]2CC[C@H]2CN2C[C@@]3(CCCc4cc(Cl)ccc43)COc3ccc(cc32)C(=O)NS1(=O)=O please?
Result string: 2

Query string: Hi there! Could you help me figure out the category for C[C@@H]1[C@@H](C)CCC[C@@](O)(Cc2nccn2C)[C@@H]2CC[C@H]2CN2C[C@@]3(CCCc4cc(Cl)ccc43)COc3ccc(cc32)C(=O)NS1(=O)=O [Example 100162] please?
Result string: 2

Query string: Hi there! Could you help me figure out the category for CO[C@@]1(Cc2nc(CO)co2)/C=C/C[C@H](C)[C@@H](C)S(=O)(=O)NC(=O)c2ccc3c(c2)N(C[C@@H]2CC[C@H]21)C[C@@]1(CCCc2cc(Cl)ccc21)CO3 please?
Result string: 2

Okay, now this compound:
Query string: Hi there! Could you help me figure out the category for C[C@@H]1[C@@H](C)CCC[C@@](O)(CC(=O)N2CCN(C)CC2)[C@@H]2CC[C@H]2CN2C[C@@]3(CCCc4cc(Cl)ccc43)COc3ccc(cc32)C(=O)NS1(=O)=O please?
Result string: 0

* * *

Documented IC50 across a set of compounds
- Tested target: recombinant human Mcl-1 (residues 171-327) / Bim interaction (Homo sapiens (Human), UniProt Q07820)
- Measurement notes: biochemical
- Type: binding
- Condition label: TR-FRET, Mcl-1(171-327) / biotin-Bim (51-76); read-out: Mcl-1 HTRF IC50
// units = nM; emit number, no label

Quick note, IC50 for CO[C@@]1(CO)/C=C/C[C@H](C)[C@@H](C)S(=O)(=O)NC(=O)c2ccc3c(c2)N(C[C@@H]2CC[C@H]21)C[C@@]1(CCCc2cc(Cl)ccc21)CO3 [Example 100001] landed at 0.055

New cases:
Quick note, IC50 for Cc1ccnc(C[C@]2(O)/C=C/C[C@H](C)[C@@H](C)S(=O)(=O)NC(=O)c3ccc4c(c3)N(C[C@@H]3CC[C@H]32)C[C@@]2(CCCc3cc(Cl)ccc32)CO4)c1 [Example 100533] landed at 8.56

Quick note, IC50 for CO[C@]1(C#CCN2CCOCC2)/C=C/C[C@H](C)[C@@H](C)S(=O)(=O)NC(=O)c2ccc3c(c2)N(C[C@@H]2CC[C@H]21)C[C@@]1(CCCc2cc(Cl)ccc21)CO3 [Example 100409] landed at 0.124

Quick note, IC50 for CO[C@@]1(CC(=O)N(C)CC(F)(F)F)/C=C/C[C@H](C)[C@@H](C)S(=O)(=O)NC(=O)c2ccc3c(c2)N(C[C@@H]2CC[C@H]21)C[C@@]1(CCCc2cc(Cl)ccc21)CO3 [Example 100375] landed at 0.07

Quick note, IC50 for CO[C@]1(Cc2cc(C)on2)/C=C/C[C@H](C)[C@@H](C)S(=O)(=O)NC(=O)c2ccc3c(c2)N(C[C@@H]2CC[C@H]21)C[C@@]1(CCCc2cc(Cl)ccc21)CO3 [Example 100548] landed at 0.064

Quick note, IC50 for C=CC[C@@]1(O)/C=C/C[C@H](C)[C@@H](C)S(=O)(=O)NC(=O)c2ccc3c(c2)N(C[C@@H]2CC[C@H]21)C[C@@]1(CCCc2cc(Cl)ccc21)CO3 (stereo in doubt) [Example 100127] landed at 0.175

Quick note, IC50 for C[C@@H]1[C@@H](C)CCC[C@](O)(COCCN(C)C)[C@@H]2CC[C@H]2CN2C[C@@]3(CCCc4cc(Cl)ccc43)COc3ccc(cc32)C(=O)NS1(=O)=O [Example 100195] landed at 1.07

Quick note, IC50 for CO[C@@]1(CO)CCC[C@H](C)[C@@H](C)S(=O)(=O)NC(=O)c2ccc3c(c2)N(C[C@@H]2CC[C@H]21)C[C@@]1(CCCc2cc(Cl)ccc21)CO3 (stereo in doubt) [Example 100133] landed at 0.885

* * *

- Tested target: recombinant human Mcl-1 (residues 171-327) / Bim interaction (Homo sapiens (Human), UniProt Q07820)
- Measurement notes: biochemical
- Assay type: binding
- Condition label: TR-FRET, Mcl-1(171-327) / biotin-Bim (51-76); read-out: Mcl-1 HTRF IC50
Documented pIC50 across a set of molecules
On this scale, pIC50 is minus log10 of a concentration expressed in M (mol/L).

Worked examples, 3 molecules total:
Quick note, pIC50 for COCCN(C)C(=O)C[C@]1(O)CCC[C@H](C)[C@@H](C)S(=O)(=O)NC(=O)c2ccc3c(c2)N(C[C@@H]2CC[C@H]21)C[C@@]1(CCCc2cc(Cl)ccc21)CO3 [Example 100141] landed at 8.98

Quick note, pIC50 for CCC(=O)C[C@]1(OC)/C=C/C[C@H](C)[C@@H](C)S(=O)(=O)NC(=O)c2ccc3c(c2)N(C[C@@H]2CC[C@H]21)C[C@@]1(CCCc2cc(Cl)ccc21)CO3 [Example 100457] landed at 9.48

Quick note, pIC50 for C[C@@H]1[C@@H](C)C/C=C/[C@@](O)([C@@H]2CCN(C)C2=O)[C@@H]2CC[C@H]2CN2C[C@@]3(CCCc4cc(Cl)ccc43)COc3ccc(cc32)C(=O)NS1(=O)=O [Example 100109] landed at 9.31

New cases:
Quick note, pIC50 for C[C@@H]1[C@@H](C)C/C=C/[C@@](O)(C#CCCN(C)C)[C@@H]2CC[C@H]2CN2C[C@@]3(CCCc4cc(Cl)ccc43)COc3ccc(cc32)C(=O)NS1(=O)=O [Example 100309] landed at 9.61

Quick note, pIC50 for CO[C@@]1(c2nccn2C)/C=C/C[C@H](C)[C@@H](C)S(=O)(=O)NC(=O)c2ccc3c(c2)N(C[C@@H]2CC[C@H]21)C[C@@]1(CCCc2cc(Cl)ccc21)CO3 (single isomer, unassigned) [Example 100556] landed at 9.95

* * *

Documented pIC50 across a set of compounds
- Tested target: recombinant human Mcl-1 (residues 171-327) / Bim interaction (Homo sapiens (Human), UniProt Q07820)
- Measurement notes: biochemical
- Type: binding
- Condition label: TR-FRET, Mcl-1(171-327) / biotin-Bim (51-76); read-out: Mcl-1 HTRF IC50
On this scale, pIC50 is minus log10 of a concentration expressed in M (mol/L).

Worked examples, 2 compounds total:
Quick note, pIC50 for C[C@@H]1[C@@H](C)CCC[C@@]2(C[C@H](C)C(=O)O2)[C@@H]2CC[C@H]2CN2C[C@@]3(CCCc4cc(Cl)ccc43)COc3ccc(cc32)C(=O)NS1(=O)=O (stereo in doubt) landed at 8.62

Quick note, pIC50 for O=C1NS(=O)(=O)CCCCC[C@@](O)(CO)[C@@H]2CC[C@H]2CN2C[C@@]3(CCCc4cc(Cl)ccc43)COc3ccc1cc32 landed at 9.06

Attention now turns to another entry.
Quick note, pIC50 for C[C@@H]1[C@@H](C)CCC[C@@](O)(C2SCCCS2)[C@@H]2CC[C@H]2CN2C[C@@]3(CCCc4cc(Cl)ccc43)COc3ccc(cc32)C(=O)NS1(=O)=O landed at 9.32
